These entries and their values trace back to patent US20080293712A1.

Please consider the recorded pIC50 for Akt1 (Homo sapiens) in what follows.
The meaning of pIC50 here: minus log10 of the concentration in molar units.

Kindly state the measured pIC50 obtained for "COc1cc2ncc3c(N)nc(-n4cnc(CO)c4)cc3c2cc1OC" with Akt1 (Homo sapiens).
Sequence (P31749 whole entry, species assumed): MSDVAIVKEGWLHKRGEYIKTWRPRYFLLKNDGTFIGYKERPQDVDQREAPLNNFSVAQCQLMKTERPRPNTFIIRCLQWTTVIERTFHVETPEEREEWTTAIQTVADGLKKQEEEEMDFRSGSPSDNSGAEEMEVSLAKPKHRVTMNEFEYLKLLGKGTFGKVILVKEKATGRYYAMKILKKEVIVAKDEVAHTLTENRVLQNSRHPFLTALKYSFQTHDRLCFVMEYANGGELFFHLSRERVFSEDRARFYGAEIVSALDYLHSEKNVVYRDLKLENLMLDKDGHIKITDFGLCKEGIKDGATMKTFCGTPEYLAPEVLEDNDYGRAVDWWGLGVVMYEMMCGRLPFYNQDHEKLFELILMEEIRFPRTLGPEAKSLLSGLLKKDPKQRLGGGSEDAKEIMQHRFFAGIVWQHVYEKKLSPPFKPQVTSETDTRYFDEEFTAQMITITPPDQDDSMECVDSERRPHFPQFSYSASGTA
5.55

And the next one, "COc1cc2c(cc1OCc1ccccc1)ncc1c(N)nc(-n3ccnc3)cc12" ?
6.74

Lookup "COc1cc2ncc3c(N)nc(-c4cncc(OC[C@@H](N)CN5CCc6ccccc6C5)c4)cc3c2cc1OC"
6.80

Next compound up: "COc1cc2c(cc1OCCN1CCCC1)ncc1c(N)nc(-n3ccnc3)cc12"
6.65
